Test system: M19-MEL melanoma
Test: NCI tumour cell line growth inhibition, 48 h
test-readout: TGI

Notebook entry, M19-MEL melanoma assay: TGI of CCCCC/C=C1\CCC(CN(C)C)C1=O (configuration not stated) = ? 26.6 µM

Another: COc1ccc(/C=C(\C(C)=O)C(=O)Nc2ccccc2)cc1 > 100 µM

Another: CC(=O)N1CCC(=O)/C(=C/c2ccccc2)C1 58.3 µM

Another: CN(C)CCNC(=O)c1cccc2c(Nc3ccc(S(=O)(=O)N=C(N)N)cc3)c3ccccc3nc12 59.9 µM

Another: COC12OCCN(C)C1=CC(=O)C1=NNC(C)C12 (configuration not stated) > 100 µM

Another: CS/C(=C(\S)c1ccccc1)c1ccccc1 > 100 µM

Another: CCOC(=O)C1SC(=Nc2ccccc2)N=C1C (configuration not stated) > 100 µM

Another: C=C(C)C1CCC2(C)CC1c1c(c(C)cc3c1[nH]c1ccccc13)O2 (configuration not stated) > 25 µM

Another: C=CN1C(=O)[C@H](Oc2ccccc2)[C@@H]1c1ccccc1 > 100 µM

Another: CN(CCN(C)C(=O)CCn1cc(F)c(=O)[nH]c1=O)C(=O)CCn1cc(F)c(=O)[nH]c1=O > 100 µM

Another: COC(=O)c1s/c(=N\C(=S)N(C)C)n(-c2ccc(Cl)cc2)c1C(=O)OC > 100 µM

Another: O=[N+]([O-])c1ccc(-c2cnc3ccccn23)cc1 > 100 µM

Another: [N-]=[N+]=N/C1=C/CCCCC(=O)C1 > 100 µM

Another: COc1ccc(OC)c(/C=C(/C#N)c2ccccc2)c1 > 100 µM

Another: Cc1nn(C(=O)CC(=O)Nc2ccc(Cl)cc2)c(C)c1N=Nc1ccccc1C(=O)O > 100 µM

Another: CCN(CC)CCSc1c2ccccc2nc2c(OC)ccc(OC)c12 38.2 µM

Another: COc1ccc2c(c1)CCCN2CCCCCCCCCCN(CCC(C)C)CCC(C)C 30.7 µM

Another: Cc1ccc(NC(=O)CCc2nnc(N)o2)cc1 > 100 µM

Another: O=C(CSc1c2ccccc2nc2ccccc12)Nc1ccccc1-c1ccccc1NC(=O)CSc1c2ccccc2nc2ccccc12 61.1 µM

Another: COc1cc(/C=C/C(=O)Oc2ccc(NC(C)=O)cc2)ccc1C(=O)O/C=C/c1ccccc1 > 100 µM

Another: N=C1C(=N)c2ccccc2-c2ccccc21.N=C1C(=N)c2ccccc2-c2ccccc21.N=C1C(=N)c2ccccc2-c2ccccc21.[Cl-].[Ru+2] 2.86 µM

Another: C[Si](C)(C)/C(Br)=C\CCN1C(=O)CCC1=O > 100 µM

###

System: MOLT-4 leukemia
Test: NCI tumour cell line growth inhibition, 48 h
test-readout: TGI (µM)
Quick reminder: number only, in µM, skip the unit.

Notebook entry, MOLT-4 leukemia assay: TGI of C=CN1C(=O)[C@H](Oc2ccccc2)[C@@H]1c1ccccc1 = ? 91.3

Another: N=C1C(=N)c2ccccc2-c2ccccc21.N=C1C(=N)c2ccccc2-c2ccccc21.N=C1C(=N)c2ccccc2-c2ccccc21.[Cl-].[Ru+2] 5.46

###

System: A549 NSCLC
Test: NCI tumour cell line growth inhibition, 48 h
test-readout: GI50

// query GI50 value for entry O=C(Nc1ccc(Cl)c(C(F)(F)F)c1)c1ccc(NC2=C(Cl)C(=O)N(Cc3ccccc3)C2=O)cc1 17 µM

Another: COc1ccc(C2=C(c3ccc(OC)cc3)C(=O)N3CCCC3C2)cc1 (stereo not given) 9.42 µM

Another: COc1ccccc1Nc1ncc(-c2ccccc2)o1 > 25 µM

Another: C=CCc1ccc(O)c(-c2ccc(O)c(CC=C)c2)c1 30.7 µM

Another: COc1ccc(-c2nnc(N3CCN(C(=O)CN4CCN(c5ccccc5)CC4)CC3)nc2-c2ccc(OC)cc2)cc1 4.85 µM

Another: O=C(NNc1ccccc1)C(=O)NNc1ccccc1 3.53 µM

Another: Cn1c(Nc2ccc(C(F)(F)F)cc2)nc2cc(Oc3ccnc(-c4ncc(C(F)(F)F)[nH]4)c3)ccc21 0.231 µM

Another: CC1(C)N=C(N)N=C(N)N1c1ccc(CCCCc2ccc(Cl)c(S(=O)(=O)F)c2)c(Cl)c1 0.319 µM

Another: COc1ccc(-c2cc(/C=C/C(=O)c3ccc(OC)c(OC)c3)[nH]n2)cc1 1.88 µM

Another: CCOC(=O)/C=C/c1ccc(C#Cc2ccccc2)cc1 72.2 µM

###

Please go through the items and note down their TGI.
Test system: DLD-1 colon
Assay: NCI tumour cell line growth inhibition, 48 h

// query TGI value for entry Cc1ccc(NC(=O)CCc2nnc(N)o2)cc1 > 100 µM

Another: O=P1(c2ccccc2)Nc2ccccc2SSc2ccccc2N1 31.8 µM

Another: COC(=O)[C@@]1(C)/C(=N/NS(=O)(=O)c2ccc(C)cc2)CCC[C@@H]1C > 100 µM

Another: C=C(C)C1CCC2(C)CC1c1c(c(C)cc3c1[nH]c1ccccc13)O2 (stereo not drawn) > 25 µM

Another: CN(C)C(=O)/C=C/c1c[nH]c(=O)[nH]c1=O > 500 µM

Another: C=CCN1CCC23c4c5ccc(O)c4OC2C(=NN=C2CCC4(O)C6Cc7ccc(O)c8c7C4(CCN6CC=C)C2O8)CCC3(O)C1C5 (stereo not drawn) > 100 µM

Another: O=C(CSc1c2ccccc2nc2ccccc12)Nc1ccccc1-c1ccccc1NC(=O)CSc1c2ccccc2nc2ccccc12 33.4 µM

Another: CCCCC/C=C1\CCC(CN(C)C)C1=O (stereo not drawn) 14.4 µM

Another: C=CCC1(CN(C)C)CC/C(=C\c2ccc(Cl)cc2)C1=O (stereo not drawn) > 94.4 µM

Another: COc1ccc(/C=C(\C(C)=O)C(=O)Nc2ccccc2)cc1 > 100 µM

Another: O=S(=O)(c1ccccc1)N1N=C2c3ccccc3CCC[C@H]2C1c1ccccc1 (stereo partly drawn) > 100 µM

Another: COC12OCCN(C)C1=CC(=O)C1=NNC(C)C12 (stereo not drawn) > 100 µM

Another: CC(Oc1ccc(OCC2CCCCC2)cc1)C(=O)OCC(=O)c1ccc(-c2ccccc2)cc1 (stereo not drawn) > 100 µM

###

Tested on: SK-OV-3 ovarian
Experiment: NCI tumour cell line growth inhibition, 48 h
Please go through the items and note down their TGI.

// query TGI value for entry CCc1nc(N)nc(N)c1-c1ccc([N+](C)(C)C)cc1 > 100 µM

Another: CC1CN=C(N(C(=O)Nc2ccccc2)c2ccc(Cl)c(Cl)c2)S1 (stereo not given) > 100 µM

Another: COc1cccc2c1C(=O)c1c(O)c3c(c(O)c1C2=O)C[C@@](O)(/C(C)=N/NC(=O)c1ccc(Cl)cc1)C[C@@H]3OC1CC(N)C(O)C(C)O1 (stereo not given in full) 13.8 µM

Another: O=C1NC(N/N=C\C(O)C(O)C(O)C(O)CO)=N/C1=C/c1ccc(Cl)cc1 (stereo not given) > 100 µM

Another: COC(=O)c1cc2c(s1)-c1nccc3c1c(nc1ccccc13)C2=O > 100 µM

Another: C[Si](C)(C)/C(I)=C/CO > 100 µM

Another: CN(C)CCSc1cc(-c2ccccc2)c2ccccc2n1 15.9 µM

Another: C=CCN1CCC23c4c5ccc(O)c4OC2C(=NN=C2CCC4(O)C6Cc7ccc(O)c8c7C4(CCN6CC=C)C2O8)CCC3(O)C1C5 (stereo not given) > 100 µM

Another: O=C1c2ccccc2C(=O)c2c1nc1ccccc1c2-c1cncc(-c2c3c(nc4ccccc24)C(=O)c2ccccc2C3=O)c1 > 100 µM

Another: CCc1ccc(/C=C/c2ccc(O)c3ncccc23)[n+](C)c1 > 100 µM

Another: COc1ccc(/C(Cl)=C(\C=O)c2ccc(OC)cc2)cc1 > 100 µM

Another: CCOC(=O)[C@H](C)OC(=O)[C@@](C)(NC(=O)c1ccccc1C(=O)OC)[C@@H]1NC=C(C(=O)OC)CS1 > 100 µM

Another: C#Cc1nc(Nc2cc(C)[nH]n2)c2ccccc2n1 > 100 µM

Another: Nc1ccccc1N=Cc1cc2cc([N+](=O)[O-])ccc2s1 29.7 µM

Another: Nc1ccn(C2OC(C(O)CO)C(O)C2O)c(=O)n1 (stereo not given) > 100 µM

Another: NCC(=O)Nc1ccc(S(=O)(=O)O)c2cc(S(=O)(=O)O)cc(S(=O)(=O)O)c12 > 100 µM

Another: CN(C)C(=O)/C=C/c1c[nH]c(=O)[nH]c1=O > 280 µM

Another: CC(=O)NC1=N/C(=C\c2ccc(Cl)cc2)C(=O)N1/C=C1\C(=O)Oc2ccccc2C1=O > 100 µM

Another: CNCCCn1c2ccccc2c2c3c(c(-c4ccsc4)cc21)C(=O)NC3=O 2.63 µM

Another: COc1ccc(C[C@H]2COC(=O)[C@@H]2Cc2cccc(Br)c2)cc1OC 66.4 µM
